Study System: AR (Homo sapiens, UniProt P10275, T878A)
Sequence (P10275 whole entry T878A): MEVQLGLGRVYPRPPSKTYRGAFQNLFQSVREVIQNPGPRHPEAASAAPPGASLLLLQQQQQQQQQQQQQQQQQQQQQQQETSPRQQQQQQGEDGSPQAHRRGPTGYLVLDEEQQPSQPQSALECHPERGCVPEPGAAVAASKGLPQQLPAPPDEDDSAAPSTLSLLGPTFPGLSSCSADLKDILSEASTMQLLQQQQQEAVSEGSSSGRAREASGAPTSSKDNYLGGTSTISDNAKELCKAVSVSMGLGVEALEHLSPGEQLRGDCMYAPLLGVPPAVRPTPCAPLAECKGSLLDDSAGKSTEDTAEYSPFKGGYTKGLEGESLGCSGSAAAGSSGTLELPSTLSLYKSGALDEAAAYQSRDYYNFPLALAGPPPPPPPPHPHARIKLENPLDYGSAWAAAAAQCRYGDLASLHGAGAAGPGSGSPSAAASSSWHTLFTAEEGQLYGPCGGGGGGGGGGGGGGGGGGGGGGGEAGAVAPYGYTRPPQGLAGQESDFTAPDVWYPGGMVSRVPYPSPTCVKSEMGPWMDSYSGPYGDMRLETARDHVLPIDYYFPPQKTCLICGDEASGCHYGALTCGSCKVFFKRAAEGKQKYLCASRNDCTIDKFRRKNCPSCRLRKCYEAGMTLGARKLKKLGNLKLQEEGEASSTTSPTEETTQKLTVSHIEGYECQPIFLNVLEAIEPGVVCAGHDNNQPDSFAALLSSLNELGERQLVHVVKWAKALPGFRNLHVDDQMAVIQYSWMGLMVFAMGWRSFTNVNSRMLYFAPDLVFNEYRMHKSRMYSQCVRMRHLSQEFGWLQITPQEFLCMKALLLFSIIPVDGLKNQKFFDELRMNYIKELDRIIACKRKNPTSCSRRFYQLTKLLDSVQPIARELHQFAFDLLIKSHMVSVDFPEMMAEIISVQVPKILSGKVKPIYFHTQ
Test Details: Effects of compounds on AR expression in LNCaP cells (ELISA, DC50)
Assay type: cell-based
Set-up: Measurement of the Effects of Drugs on the Expression of AR in Cells by ELISA Method; endogenous in cells; host or cells: LNCaP
Condition Notes: 24 hours of drug treatment, AR by ELISA
Experimental Readout: DC50 (nM)

Compound	Study System	Recorded Measurement
Cc1ncsc1-c1ccc([C@H](C)NC(=O)[C@@H]2C[C@@H](O)CN2C(=O)[C@@H](NC(=O)COCCCCOc2ccc(-c3ncc(N4C(=S)N(c5ccc(C#N)c(C(F)(F)F)c5F)C(=O)C4(C)C)cc3C(F)(F)F)cc2F)C(C)(C)C)cc1	AR (Homo sapiens, UniProt P10275, T878A)	136
Cc1ncsc1-c1ccc(CNC(=O)[C@@H]2C[C@@H](O)CN2C(=O)[C@@H](NC(=O)Cc2ccc(C(=O)Nc3ccc(-c4ccc(N5C(=S)N(c6ccc(C#N)c(C(F)(F)F)c6F)C(=O)C5(C)C)cn4)cc3)cc2)C(C)(C)C)cc1	AR (Homo sapiens, UniProt P10275, T878A)	264
CC1(C)C(=O)N(c2ccc(C#N)c(C(F)(F)F)c2F)C(=S)N1c1ccc(-c2ccc(OCCNC(=O)COc3cccc4c3C(=O)N(C3CCC(=O)NC3=O)C4=O)c(F)c2)nc1 (centres unmarked)	AR (Homo sapiens, UniProt P10275, T878A)	117
Cc1ncsc1-c1ccc(CNC(=O)[C@@H]2C[C@@H](O)CN2C(=O)[C@@H](NC(=O)COCCCCn2cc(-c3ccc(N4C(=S)N(c5ccc(C#N)c(C(F)(F)F)c5F)C(=O)C4(C)C)cn3)ccc2=O)C(C)(C)C)cc1	AR (Homo sapiens, UniProt P10275, T878A)	281
CC(C)(C)[C@H](NC(=O)COCCCCOc1ccc(-c2ncc(N3C(=S)N(c4ccc(C#N)c(C(F)(F)F)c4F)C(=O)C3(C)C)cc2F)c(C(F)(F)F)c1)C(=O)N1C[C@H](O)C[C@H]1c1nc(-c2cncs2)c[nH]1	AR (Homo sapiens, UniProt P10275, T878A)	36.4
Cc1ncsc1-c1ccc(CNC(=O)[C@@H]2C[C@@H](O)CN2C(=O)[C@@H](NC(=O)CCN2CCN(C(=O)c3ccc(-c4ccc(N5C(=S)N(c6ccc(C#N)c(C(F)(F)F)c6F)C(=O)C5(C)C)cn4)cc3)CC2)C(C)(C)C)cc1	AR (Homo sapiens, UniProt P10275, T878A)	133
Cc1ncsc1-c1ccc(CNC(=O)[C@@H]2C[C@@H](O)CN2C(=O)[C@@H](NC(=O)COCC(F)CCOc2ccc(-c3ncc(N4C(=S)N(c5ccc(C#N)c(C(F)(F)F)c5F)C(=O)C4(C)C)cc3F)c(C(F)(F)F)c2)C(C)(C)C)cc1 (some centres unmarked)	AR (Homo sapiens, UniProt P10275, T878A)	144
Cc1ncsc1-c1ccc(CNC(=O)[C@@H]2C[C@@H](O)CN2C(=O)[C@@H](N(C)C(=O)COCCCCOc2ccc(-c3ccc(N4C(=S)N(c5ccc(C#N)c(C(F)(F)F)c5F)C(=O)C4(C)C)cn3)cc2)C(C)(C)C)cc1	AR (Homo sapiens, UniProt P10275, T878A)	213
Cc1ncsc1-c1c[nH]c([C@@H]2C[C@@H](O)CN2C(=O)[C@@H](NC(=O)COCCCCOc2ccc(-c3ccc(N4C(=S)N(c5ccc(C#N)c(C(F)(F)F)c5F)C(=O)C4(C)C)cn3)cc2)C(C)(C)C)n1	AR (Homo sapiens, UniProt P10275, T878A)	42.8
CC1(C)C(=O)N(c2ccc(C#N)c(C(F)(F)F)c2F)C(=S)N1c1cnc(-c2ccc(OCCNC(=O)COc3cccc4c3C(=O)N(C3CCC(=O)NC3=O)C4=O)c(F)c2)c(F)c1 (centres unmarked)	AR (Homo sapiens, UniProt P10275, T878A)	19.4
Cc1ncsc1-c1ccc(CNC(=O)[C@@H]2C[C@@H](O)CN2C(=O)[C@@H](NC(=O)COCCOCCOc2ncc(N3C(=S)N(c4ccc(C#N)c(C(F)(F)F)c4F)C(=O)C3(C)C)cc2F)C(C)(C)C)cc1	AR (Homo sapiens, UniProt P10275, T878A)	381
Cc1ncsc1-c1ccc(CNC(=O)[C@@H]2C[C@@H](O)CN2C(=O)[C@@H](NC(=O)COCC(F)C(F)COc2ccc(-c3ncc(N4C(=S)N(c5ccc(C#N)c(C(F)(F)F)c5F)C(=O)C4(C)C)cc3F)cc2F)C(C)(C)C)cc1 (some centres unmarked)	AR (Homo sapiens, UniProt P10275, T878A)	90.6
Cc1ncsc1-c1ccc([C@H](C)NC(=O)[C@@H]2C[C@@H](O)CN2C(=O)[C@@H](NC(=O)COCCCCOc2c(F)cc(-c3ncc(N4C(=S)N(c5ccc(C#N)c(C(F)(F)F)c5F)C(=O)C4(C)C)cc3C(F)(F)F)cc2F)C(C)(C)C)cc1	AR (Homo sapiens, UniProt P10275, T878A)	214
Cc1ncsc1-c1ccc(CNC(=O)[C@@H]2C[C@@H](O)CN2C(=O)[C@@H](NC(=O)CCn2cc(COc3ccc(-c4ccc(N5C(=S)N(c6ccc(C#N)c(C(F)(F)F)c6F)C(=O)C5(C)C)cn4)cc3)nn2)C(C)(C)C)cc1	AR (Homo sapiens, UniProt P10275, T878A)	116
Cc1ncsc1-c1ccc([C@H](C)NC(=O)[C@@H]2C[C@@H](O)CN2C(=O)[C@@H](NC(=O)COCCCCOc2ccc(-c3ccc(N4C(=S)N(c5ccc(C#N)c(C(F)(F)F)c5F)C(=O)C4(C)C)cn3)cn2)C(C)(C)C)cc1	AR (Homo sapiens, UniProt P10275, T878A)	55
Cc1ncsc1-c1ccc(CNC(=O)[C@@H]2C[C@@H](O)CN2C(=O)[C@@H](NC(=O)COCC(F)C(F)COc2ccc(-c3ccc(N4C(=S)N(c5ccc(C#N)c(C(F)(F)F)c5F)C(=O)C4(C)C)cn3)cc2)C(C)(C)C)cc1 (some centres unmarked)	AR (Homo sapiens, UniProt P10275, T878A)	92.6
CC(C)(C)[C@H](NC(=O)COCCOc1ccc(-c2ncc(N3C(=S)N(c4ccc(C#N)c(C(F)(F)F)c4F)C(=O)C3(C)C)cc2F)cc1F)C(=O)N1C[C@H](O)C[C@H]1C(=O)NCc1ccccc1	AR (Homo sapiens, UniProt P10275, T878A)	131

====

Study System: AR (Homo sapiens, UniProt P10275, T878A)
Test Details: Effects of compounds on AR expression in LNCaP cells (ELISA, DC50)
Type: cell-based
Design: Measurement of the Effects of Drugs on the Expression of AR in Cells by ELISA Method; endogenous in cells; host or cells: LNCaP
Condition Notes: 24 hours of drug treatment, AR by ELISA
Listed here are molecules together with their documented DC50.
Experimental Readout: DC50 (nM)

Molecule	Study System	Recorded Measurement
Cc1ncsc1-c1ccc(CNC(=O)[C@@H]2C[C@@H](O)CN2C(=O)[C@@H](NC(=O)COCCCCOc2ccc(-c3ncc(N4C(=S)N(c5ccc(C#N)c(C(F)(F)F)c5F)C(=O)C4(C)C)cn3)cc2F)C(C)(C)C)cc1 [Compound A111]	AR (Homo sapiens, UniProt P10275, T878A)	46.2
Cc1ncsc1-c1ccc(CNC(=O)[C@@H]2C[C@@H](O)CN2C(=O)[C@@H](NC(=O)COCCCCOc2ccc(-c3ncc(N4C(=S)N(c5ccc(C#N)c(C(F)(F)F)c5F)C(=O)C4(C)C)cc3F)cc2F)C(C)(C)C)cc1 [Compound A70]	AR (Homo sapiens, UniProt P10275, T878A)	62.1
Cc1ncsc1-c1ccc(CNC(=O)[C@@H]2C[C@@H](O)CN2C(=O)[C@@H](NC(=O)COCCCCOc2ccc(-c3ncc(N4C(=S)N(c5ccc(C#N)c(C(F)(F)F)c5F)C(=O)C4(C)C)cc3C(F)(F)F)c(C(F)(F)F)c2)C(C)(C)C)cc1 [Compound A101]	AR (Homo sapiens, UniProt P10275, T878A)	115

====

Listed here are compounds together with their documented DC50.
Study System: AR (Homo sapiens, UniProt P10275, T878A)
Test Details: Effects of compounds on AR expression in LNCaP cells (ELISA, DC50)
Format: cell-based
Parameters: Measurement of the Effects of Drugs on the Expression of AR in Cells by ELISA Method; endogenous in cells; host or cells: LNCaP
Condition Notes: 24 hours of drug treatment, AR by ELISA

Compound	Qualifying Sign	DC50, µM
Cc1ncsc1-c1ccc(CNC(=O)[C@@H]2C[C@@H](O)CN2C(=O)[C@@H](NC(=O)COCCC(F)(F)COc2ccc(-c3ncc(N4C(=S)N(c5ccc(C#N)c(C(F)(F)F)c5F)C(=O)C4(C)C)cc3F)cc2F)C(C)(C)C)cc1	=	0.171
COc1c(C#N)ccc(N2C(=O)C(C)(C)N(c3cnc(-c4ccc(OCCNC(=O)COc5ccc6c(c5)C(=O)N(C5CCC(=O)NC5=O)C6=O)c(F)c4)c(F)c3)C2=S)c1F (stereo not shown)	=	0.435
Cc1ncsc1-c1ccc(CNC(=O)[C@@H]2C[C@@H](O)CN2C(=O)[C@@H](NC(=O)COCC(F)CCOc2ccc(-c3ncc(N4C(=S)N(c5ccc(C#N)c(C(F)(F)F)c5F)C(=O)C4(C)C)cc3F)cc2F)C(C)(C)C)cc1 (stereo partly shown)	=	0.168
CC(C)(C)[C@H](NC(=O)COCCCCCOc1ccc(-c2ncc(N3C(=S)N(c4ccc(C#N)c(C(F)(F)F)c4F)C(=O)C3(C)C)cc2F)cc1F)C(=O)N1C[C@H](O)C[C@H]1C(=O)NCc1ccccc1	>	2
